- MEASUREMENT_TARGET: benzodiazepine site of the GABA-A receptor
- METHOD_NOTES: Benzodiazepine Receptor Binding Assay (inhibition of 3H-flunitrazepam binding)
- COND: 3H-flunitrazepam ca. 3 nM; 10-20 min at 25° C.
- Method: Selected compounds, which were prepared according to the experimental details given in the following examples, were tested for binding to the benzodiazepine site of the GABA-A receptor (Williams, M. et al., J. Pharm. Exper. Therap. 1988, 248, 89). The ability of the compounds of the invention to inhibit the binding of flunitrazepam to prepared receptors was assessed. […] Concentration-response data were analyzed in a variety of ways. […]
READOUT_KIND: pIC50
Expect pIC50 as a plain number equal to -log10 of the molar concentration.

Record summary for O=C1CCN2C(=C1C(=O)Nc1ccccc1F)N(Cc1ccccn1)c1ccccc12 : reported pIC50 = 8.42

Record summary for O=C1CCN2C(=C1C(=O)Nc1c(F)cccc1F)N(Cc1ccccn1)c1ccccc12 : reported pIC50 = 7.62

Record summary for O=C1CCN2C(=C1C(=O)Nc1ccccc1F)N(CCc1ccccn1)c1cc(F)ccc12 : reported pIC50 = 9.05

Record summary for O=C1CCN2C(=C1C(=O)Nc1c(F)cccc1F)N(Cc1ccsc1)c1cc(F)ccc12 : reported pIC50 = 8.37

Record summary for O=C1CCN2C(=C1C(=O)Nc1ccccc1F)N(Cc1cccs1)c1cc(F)ccc12 : reported pIC50 = 9.52

Record summary for O=C1CCN2C(=C1C(=O)Nc1ccccc1F)N(Cc1cccnc1)c1cc(F)ccc12 : reported pIC50 = 8.90

Record summary for O=C1CCN2C(=C1C(=O)Nc1ccccc1F)N(Cc1ccncc1)c1cc(F)ccc12 : reported pIC50 = 8.52

Record summary for O=C1CCN2C(=C1C(=O)Nc1ccccc1F)N(Cc1c[nH]cn1)c1cc(F)ccc12 : reported pIC50 = 9.54

Record summary for O=C1CCN2C(=C1C(=O)Nc1c(F)cccc1F)N(CCc1ccsc1)c1cc(F)ccc12 : reported pIC50 = 9.66

Record summary for O=C1CCN2C(=C1C(=O)Nc1ccccc1F)N(Cc1ccccn1)c1cc(F)ccc12 : reported pIC50 = 8.55

Record summary for O=C1CCN2C(=C1C(=O)Nc1c(F)cccc1F)N(Cc1ccco1)c1cc(F)ccc12 : reported pIC50 = 8.90

Record summary for O=C1CCN2C(=C1C(=O)Nc1ccccc1F)N(Cc1cccnc1)c1ccccc12 : reported pIC50 = 8.34
